Give measured growth for each item. Keep answers brief.
System: CCRF-CEM leukemia
METHOD_DESCRIPTION: NCI-60 one-dose screen, 48 h (100 = growth as untreated, 0 = no growth, -100 = all killed)
ASSAY_SETUP: 10 µM unless noted
The panel holds about 83,000 compounds, 20% with a hit somewhere; the sample as a whole holds those more often. Activity calls are given as the source filed them. Rule for the calls: active = growth percent below 10; inactive = the rest.

Here is how some compounds turned out for growth.
COc1ccc(-n2nc(C(=O)NCC(=O)O)nc2-c2ccccc2)cc1 :: 102% (inactive)
C/C(=N/Nc1nc2ccccc2n1C)c1ccccn1 :: -6.15% (active)
N#CC(C#N)=C1NC(c2ccccc2)=C(c2ccccc2)C(c2ccccc2Cl)=C1C#N :: 96.2% (inactive)
O=c1[nH]c2ccccc2cc1-c1nc2ccncc2[nH]1 :: 59.5% (inactive)
COc1cc(/C=C/CO)cc(OC)c1O[C@@H]1O[C@H](CO)[C@@H](O)[C@H](O)[C@H]1O :: 96.2% (inactive)

# per-item lookup of growth; items listed below
1. Cc1nnc(/N=C2\NC(=O)/C(=C/c3ccc(N(C)C)cc3)S2)s1
2. COc1cc(C(C)c2ccc3c(ccn3C)c2)cc(OC)c1OC (stereo unspecified)
3. COc1ccc(-c2[nH]c3ccc(OC)cc3c2C=C(C#N)C#N)cc1
4. Cc1cccc(C)c1Nc1nnc(-c2ccc(F)cc2)o1

["62.6% (inactive)", "16.3% (inactive)", "11.1% (inactive)", "100% (inactive)"]

# per-item lookup of growth; items listed below
1. CCc1ccc(OCc2ccccc2C(=O)Nc2ccc3nc(C)cc(N)c3c2)cc1
2. Cc1c(Cl)cccc1NC(=O)c1sc2nc3c(cc2c1N)CCCCCC3

1: -53.4% (active); 2: 10.9% (inactive)

* * *

System: UO-31 renal
METHOD_DESCRIPTION: NCI-60 one-dose screen, 48 h
ASSAY_SETUP: 10 µM unless noted
This is part of a sample that, as a whole, favours compounds with a hit. Of some 83,000 tested, about 20% had one in any assay. The source made the active and inactive calls. The calls were made as follows: active = growth percent below 10; inactive = the rest.
Respond with a class label; see Y for active, N for inactive

Worked set:
C#Cc1ccccc1NC(=O)c1sc2nc3c(cc2c1N)CCCCCC3 :: N
CCC[S@@](=O)c1ccc2nc(NC(=O)OC)[nH]c2c1 :: N
O=C(Nc1nc(-c2ccccc2)cs1)c1cc(-c2ccc(Br)cc2)nc2ccccc12 :: N
CCOC(=O)C1=C(C)n2nc(CC#N)c(C#N)c2NC1c1ccc(Cl)cc1 (configuration not stated) :: N
Nc1c(C(=O)Nc2ccccn2)sc2nc3c(cc12)CCCCCC3 :: N

Look up the recorded call for `COC(=O)/C=C1\SC(=Nc2cccc(Cl)c2)N(CCc2c[nH]c3ccccc23)C1=O` in this test. N

Look up the recorded call for `COc1cc(C(=O)Nc2cc(OC)c3ccn(C)c3c2)cc2c1C[C@]1(C)CC[C@@H](O)C(C)(C)[C@H]1O2` in this test. Y

Look up the recorded call for `Nc1c(C(=O)Nc2ccccn2)sc2nc3c(cc12)C(=O)CCC3` in this test. N

Look up the recorded call for `COc1cc(-c2csc(NC(=O)Nc3ccc(C(F)(F)F)cc3)n2)cc(OC)c1OC` in this test. Y

* * *

Give measured growth for each item. Keep answers brief.
Test system: BT-549 breast
METHOD_DESCRIPTION: NCI-60 one-dose screen, 48 h (100 = growth as untreated, 0 = no growth, -100 = all killed)
ASSAY_SETUP: 10 µM unless noted
Compounds without any hit were thinned out: in the full panel of roughly 83,000, 20% have a hit.
Answers are plain numbers, in %.

Here is how some molecules turned out for growth.
Nc1c(C(=O)Nc2cccc3ccccc23)sc2nc3c(cc12)CCCCCC3 :: 32
Nc1ccccc1NS(=O)(=O)c1ccc(Cl)cc1 :: 101
COCCc1n(Cc2ccc3ccccc3c2)c2ccccc2[n+]1Cc1ccc2ccccc2c1 :: -48.5
CCOCCc1c(O)nc(SC)[nH]c1=O :: 110
CCC[S@](=O)c1ccc2nc(NC(=O)OC)[nH]c2c1 :: 97.3

# per-item lookup of growth; items listed below
1. COc1ccc(Cl)c([N+](=O)[O-])c1
2. C#CC[C@@H]1C[C@]2(C)[C@H]3CC[C@@H]4[C@H]5[C@H](C(=C)C)CC[C@]5(C(=O)O)CC[C@@]4(C)[C@]3(C)CC[C@H]2C(C)(C)[C@H]1O
3. O=C1Nc2ccc(Br)cc2/C1=N\N=C/c1cn(Cc2ccccc2)c2ccccc12
4. CS(=O)(=O)O[C@@H]1C(=O)N(c2cc3c4ccccc4ccc3c3ccccc23)[C@H]1c1ccc(F)cn1
5. N#CC(C#N)=C1NC(c2ccccc2)=C(c2ccccc2)C(c2ccccc2Cl)=C1C#N
6. Nc1ccc(C(=O)Nc2cccc(C(=O)Nc3ccc4c(O)c(N=Nc5ccc(N=Nc6ccc(S(=O)(=O)O)cc6)cc5)c(S(=O)(=O)O)cc4c3)c2)cc1

1. 104
2. 29
3. 105
4. 44.6
5. 86.2
6. 111
